Tested on: PBMCs
Experiment: Cytotoxicity (TC50) in PBMCs
Assay type: cell-based
Settings: isolate BCF02, subtype O; read-out: TC 50 (the source's name)
READOUT_NAME: CC50

IN: Tell me the measured CC50 of CCCCCCCCCCCCCCCCOCCCOP(=O)(O)CO[C@H](C)Cn1cnc2c(N)ncnc21 [CMX157] , please.
OUT: > 1000 nM

---

System: HIV
Test: microbe, parasite or virus in culture
Assay type: cell-based
Conditions: Human immunodeficiency virus 1, PANEL 17, L74V
IC50: recorded values
Answers without a unit are incomplete; give the number and then its unit.

Nc1nc(NC2CC2)c2ncn([C@H]3C=C[C@@H](CO)C3)c2n1 = 3360 nM

IN: Form field - read-out: IC50; system: HIV; submitted item: CCCCCCCCCCCCCCCCOCCCOP(=O)(O)CO[C@H](C)Cn1cnc2c(N)ncnc21
OUT: 1.23 nM

IN: Try this compound next: Cc1cn([C@H]2C[C@H](N=[N+]=[N-])[C@@H](CO)O2)c(=O)[nH]c1=O
OUT: 11 nM

---

System: HIV
Test: microbe, parasite or virus in culture
Format: cell-based
Settings: Human immunodeficiency virus 1, PANEL 30, M184V − SDM
READOUT_NAME: pIC50
In simple prose, pIC50 is minus the logarithm base ten of a concentration in moles per litre.

CCCCCCCCCCCCCCCCOCCCOP(=O)(O)CO[C@H](C)Cn1cnc2c(N)ncnc21 = 8.94

IN: Tell me the measured pIC50 of OC[C@@H]1CC[C@H](n2cnc3c(O)ncnc32)O1 , please.
OUT: 5.17

---

System: HIV
Assay: microbe, parasite or virus in culture
Assay type: cell-based
Conditions: Human immunodeficiency virus 1, PANEL 48, K70E + M184V
READOUT_NAME: pIC50
In simple prose, pIC50 is minus the logarithm base ten of a concentration in moles per litre.

OC[C@@H]1CC[C@H](n2cnc3c(O)ncnc32)O1 [ddI, 2′,3′-dideoxyinosine] = 5.00

Now, please, on to the next compound.
IN: Form field - read-out: pIC50; system: HIV; submitted item: Cc1cn([C@H]2C=C[C@@H](CO)O2)c(=O)[nH]c1=O [d4T, 2′,3′-didehydro-3′-deoxythymidine]
OUT: 6.41
